- Tested on: NCI-H460 tumor-bearing mice (lung cancer)
- assay_overview: Biodistribution: lutetium accumulation in tumor, plasma and healthy tissues by ICP-MS
- Type: in vivo
- recorded_conditions: 0.5 mg/kg lutetium conjugate; liver; 24 h
- Experimental: Lutetium accumulation was measured in tumor, plasma and healthy tissues of NCI-H460 tumor-bearing mice (lung cancer). NCJ-H460 tumor bearing mice were dosed with 0.5 mg/kg of lutetium conjugates. At the time points indicated, mice were sacrificed and tumor, liver, kidneys and plasma were taken. All tissues were analyzed for lutetium content by ICP-MS, and lutetium uptake in % ID/g determined by the following equation: […]
# label = 1 (yes) if % ID/g uptake, Liver, 24 h < 1 % ID/g else 0 (no)

INSERT INTO measurements (molecule, discrete_label) VALUES
  ('CCNC(=O)c1nnc(-c2cc(C(C)C)c(O)cc2O)n1-c1ccc(CN2CCN(C(=O)CCNC(=O)[C@@H](CCC(=O)N3CCN(Cc4ccc(-n5c(C(=O)NCC)nnc5-c5cc(C(C)C)c(O)cc5O)cc4)CC3)NC(=O)CCNC(=O)[C@@H](CCC(=O)O)NC(=O)[C@@H](CCC(=O)O)NC(=O)[C@@H](CCC(=O)O)NC(=O)COCCOCCNC(=O)CC[C@H](C(=O)O)N3CCN4CCN5CCN(CC3)CC(=O)[O][Lu]([O]C(=O)C5)[O]C(=O)C4)CC2)cc1 [T4]', '1 (yes)'),
  ('CCNC(=O)c1nnc(-c2cc(C(C)C)c(O)cc2O)n1-c1ccc(OC2CCN(C(=O)CCNC(=O)[C@@H](CCC(=O)N3CCC(Oc4ccc(-n5c(C(=O)NCC)nnc5-c5cc(C(C)C)c(O)cc5O)cc4)CC3)NC(=O)CC[C@H](C(=O)O)N3CCN4CCN5CCN(CC3)CC(=O)[O][Lu]([O]C(=O)C5)[O]C(=O)C4)CC2)cc1 [T6]', '0 (no)'),
  ('CCNC(=O)c1nnc(-c2cc(C(C)C)c(O)cc2O)n1-c1ccc(OC2CCN(C(=O)CCNC(=O)[C@@H](CCC(=O)O)NC(=O)[C@@H](CCC(=O)O)NC(=O)[C@@H](CCC(=O)O)NC(=O)COCCOCCNC(=O)[C@H](CCCCNC(=O)CC[C@H](C(=O)O)N3CCN4CCN5CCN(CC3)CC(=O)[O][Lu]([O]C(=O)C5)[O]C(=O)C4)NC(=O)CCCc3ccc(I)cc3)CC2)cc1 [T11]', '0 (no)'),
  ('CCNC(=O)c1nnc(-c2cc(C(C)C)c(O)cc2O)n1-c1ccc(CN2CCN(C(=O)CCNC(=O)[C@@H](CCC(=O)N3CCN(Cc4ccc(-n5c(C(=O)NCC)nnc5-c5cc(C(C)C)c(O)cc5O)cc4)CC3)NC(=O)CCNC(=O)[C@@H](CCC(=O)O)NC(=O)[C@@H](CCC(=O)O)NC(=O)[C@@H](CCC(=O)O)NC(=O)COCCOCCNC(=O)[C@H](Cc3ccccc3)NC(=O)CNC(=O)CNC(=O)CC[C@H](C(=O)O)N3CCN4CCN5CCN(CC3)CC(=O)[O][Lu]([O]C(=O)C5)[O]C(=O)C4)CC2)cc1 [T8]', '1 (yes)'),
  ('CCNC(=O)c1nnc(-c2cc(C(C)C)c(O)cc2O)n1-c1ccc2c(ccn2CCC2CCN(C(=O)CCNC(=O)[C@@H](CCC(=O)O)NC(=O)[C@@H](CCC(=O)O)NC(=O)[C@@H](CCC(=O)O)NC(=O)COCCOCCNC(=O)[C@H](CCCCNC(=O)CC[C@H](C(=O)O)N3CCN4CCN5CCN(CC3)CC(=O)[O][Lu]([O]C(=O)C5)[O]C(=O)C4)NC(=O)CCCc3ccc(I)cc3)CC2)c1 [T7]', '0 (no)'),
  ('CCNC(=O)c1nnc(-c2cc(C(C)C)c(O)cc2O)n1-c1ccc(CN2CCN(C(=O)CC[C@H](NC(=O)CCNC(=O)[C@@H](CCC(=O)O)NC(=O)[C@@H](CCC(=O)O)NC(=O)[C@@H](CCC(=O)O)NC(=O)COCCOCCNC(=O)CC[C@H](C(=O)O)N3CCN4CCN5CCN(CC3)CC(=O)[O][Lu]([O]C(=O)C5)[O]C(=O)C4)C(=O)N3CCN(Cc4ccc(-n5c(C(=O)NCC)nnc5-c5cc(C(C)C)c(O)cc5O)cc4)CC3)CC2)cc1 [T5]', '1 (yes)');

Cited source for all entries: patent US20260166158A1
